Experimental details: Single oral dose plasma PK in fasted dogs
Format: in vivo, dog
Assay setup: male, beagle, dog, plasma, po, 20 mg/kg, 3M, 20 mg/kg PO, 100% PEG400 solution, Study 3, Tlast = 96 hours

- Molecule: "O=C(Nc1ccnc(C(F)(F)F)c1)c1cnn(-c2cccc3c(=O)[nH]ccc23)c1C(F)(F)F [Compound A]"
  Endpoint unit: "µg·h/mL"
  AUC(0-t): 215

----------
Experimental details: FIH study 67856633LYM1001 plasma pharmacokinetics
Assay type: in vivo, human
Assay setup: human, plasma, oral, 400 mg, Cycle 2 Day 1, 200 mg capsule, cohort 2 × 200 mg; median; read-out: Tmax
Readout label: Tmax (h)

- Compound smiles: "O=C(Nc1ccnc(C(F)(F)F)c1)c1cnn(-c2cccc3c(=O)[nH]ccc23)c1C(F)(F)F"
  Numeric result: 3

----------
Experimental details: Serum and tumor levels after multiple oral doses in male OCI-LY3 tumor-bearing NSG mice
Type: in vivo
Assay setup: male, NSG, mouse, serum, po, once daily PO, dose not given (second group), Day 4, 12 h post dose; mean (SD); read-out: Serum concentration
Readout label: concentration at 12 h (ng/mL)

- Compound smiles: "O=C(Nc1ccnc(C(F)(F)F)c1)c1cnn(-c2cccc3c(=O)[nH]ccc23)c1C(F)(F)F"
  Readout label: "concentration at 12 h"
  Endpoint unit: "ng/mL"
  Numeric result: 11000

----------
Experimental details: FIH study 67856633LYM1001 plasma pharmacokinetics
Format: in vivo, human
Assay setup: human, plasma, oral, 400 mg, Cycle 1 Day 1, 200 mg capsule, cohort 2 × 200 mg food adlib; mean; read-out: Cmax

- Compound smiles: "O=C(Nc1ccnc(C(F)(F)F)c1)c1cnn(-c2cccc3c(=O)[nH]ccc23)c1C(F)(F)F"
  Cmax: "6830 ng/mL"

----------
Experimental details: 14-day oral toxicity study toxicokinetics in Sprague-Dawley rats
Assay type: in vivo
Assay setup: female, rat, plasma, 30 mg/kg/day, female, Day 0, 30 mg/kg/day, mean

- Compound: "O=C(Nc1ccnc(C(F)(F)F)c1)c1cnn(-c2cccc3c(=O)[nH]ccc23)c1C(F)(F)F [Compound A]"
  Cmax, ng/mL: 27100

----------
Experimental details: FIH study 67856633LYM1001 plasma pharmacokinetics
Format: in vivo, human
Assay setup: human, plasma, oral, 50 mg, Cycle 2 Day 1, 50 mg capsule, cohort 50 mg; median; read-out: Tmax
Readout label: Tmax (h)

- Compound smiles: "O=C(Nc1ccnc(C(F)(F)F)c1)c1cnn(-c2cccc3c(=O)[nH]ccc23)c1C(F)(F)F"
  Numeric result: 2

----------
Experimental details: FIH study 67856633LYM1001 plasma pharmacokinetics
Format: in vivo, human
Assay setup: human, plasma, oral, 400 mg, Cycle 2 Day 1, 50 mg capsule, cohort 8 × 50 mg; mean; read-out: AUCτ
Readout label: AUC (µg·h/mL)

- Molecule: "O=C(Nc1ccnc(C(F)(F)F)c1)c1cnn(-c2cccc3c(=O)[nH]ccc23)c1C(F)(F)F [Compound A]"
  Endpoint unit: "µg·h/mL"
  Numeric result: 1590

----------
Experimental details: Single IV dose plasma PK
Type: in vivo, rat
Assay setup: male, Sprague-Dawley (S-D), rat, plasma, iv, 1 mg/kg, S-D, 6M, 1 mg/kg IV, dosed as the -ZAF salt

- Compound smiles: "O=C(Nc1ccnc(C(F)(F)F)c1)c1cnn(-c2cccc3c(=O)[nH]ccc23)c1C(F)(F)F"
  clearance / mL/min/kg: 1.7

----------
Experimental details: FIH study 67856633LYM1001 plasma pharmacokinetics
Assay type: in vivo, human
Assay setup: human, plasma, oral, 200 mg, Cycle 2 Day 1, 50 mg capsule, cohort 4 × 50 mg, Subject 100032 excluded; mean; read-out: Cmax

- Compound: "O=C(Nc1ccnc(C(F)(F)F)c1)c1cnn(-c2cccc3c(=O)[nH]ccc23)c1C(F)(F)F [Compound A]"
  Cmax (ng/mL): 44800

----------
Experimental details: Single IV dose plasma PK
Type: in vivo, dog
Assay setup: male, plasma; Dog, beagle, 3M, 1 mg/kg IV in 70% PEG400; mean; read-out: Vdss
Readout label: Vd (L/kg)

- Compound: "O=C(Nc1ccnc(C(F)(F)F)c1)c1cnn(-c2cccc3c(=O)[nH]ccc23)c1C(F)(F)F [Compound A]"
  Readout label: "Vd"
  Numeric result: 1.01

----------
Experimental details: 14-day oral toxicity study toxicokinetics in Sprague-Dawley rats
Assay type: in vivo
Assay setup: female, rat, plasma, 30 mg/kg/day, female, Day 0, 30 mg/kg/day, range

- Compound: "O=C(Nc1ccnc(C(F)(F)F)c1)c1cnn(-c2cccc3c(=O)[nH]ccc23)c1C(F)(F)F [Compound A]"
  Tmax: "1 to 7 h"

----------
Experimental details: FIH study 67856633LYM1001 plasma pharmacokinetics
Assay type: in vivo, human
Assay setup: human, plasma, oral, 50 mg, Cycle 1 Day 1, 50 mg capsule, cohort 50 mg; median; read-out: Tmax

- Compound smiles: "O=C(Nc1ccnc(C(F)(F)F)c1)c1cnn(-c2cccc3c(=O)[nH]ccc23)c1C(F)(F)F"
  Tmax, h: 3

----------
Experimental details: Single oral dose plasma PK in fasted dogs
Format: in vivo, dog
Assay setup: male, beagle, dog, plasma, po, 20 mg/kg, 3M, 20 mg/kg PO, 100% PEG400 solution, Study 3
Readout label: AUC(0-inf)

- Compound smiles: "O=C(Nc1ccnc(C(F)(F)F)c1)c1cnn(-c2cccc3c(=O)[nH]ccc23)c1C(F)(F)F"
  Result: "224 µg·h/mL"

----------
Experimental details: Single IV dose plasma PK
Format: in vivo, dog
Assay setup: male, plasma; Dog, beagle, 3M, 1 mg/kg IV in 70% PEG400; mean
Readout label: half-life (h)

- Compound smiles: "O=C(Nc1ccnc(C(F)(F)F)c1)c1cnn(-c2cccc3c(=O)[nH]ccc23)c1C(F)(F)F"
  Readout label: "half-life"
  Endpoint unit: "h"
  Numeric result: 16.9

----------
Experimental details: 14-day oral toxicity study toxicokinetics in Sprague-Dawley rats
Format: in vivo
Assay setup: male, rat, plasma, 200 mg/kg/day, male, Day 0, 200 mg/kg/day, mean, read-out: AUC0-24 h

- Compound smiles: "O=C(Nc1ccnc(C(F)(F)F)c1)c1cnn(-c2cccc3c(=O)[nH]ccc23)c1C(F)(F)F"
  AUC(0-t), µg·h/mL: 1410

----------
Experimental details: Single IV dose plasma PK
Format: in vivo, rat
Assay setup: male, Sprague-Dawley, plasma; Rat, S-D, 3M, 1 mg/kg IV in 70% PEG400 (-AAA); mean
Readout label: C0 (ng/mL)

- Compound: "O=C(Nc1ccnc(C(F)(F)F)c1)c1cnn(-c2cccc3c(=O)[nH]ccc23)c1C(F)(F)F [Compound A]"
  Readout label: "C0"
  Numeric result: 2200

----------
Experimental details: Serum concentration after 28 days of oral dosing in male OCI-LY3 tumor-bearing NSG mice
Type: in vivo
Assay setup: mouse, 60 mg/kg QD PO 28 days, 0.25 h post last dose, mean
Readout label: concentration at 0.25 h (ng/mL)

- Compound: "O=C(Nc1ccnc(C(F)(F)F)c1)c1cnn(-c2cccc3c(=O)[nH]ccc23)c1C(F)(F)F [Compound A]"
  Numeric result: 6990

----------
Experimental details: Single oral dose plasma PK in fasted dogs
Format: in vivo, dog
Assay setup: male, beagle, dog, plasma, po, 5 mg/kg, 3M (N = 2 used), 5 mg/kg PO, 100% PEG400 solution, Study 1
Readout label: Cmax (ng/mL)

- Compound smiles: "O=C(Nc1ccnc(C(F)(F)F)c1)c1cnn(-c2cccc3c(=O)[nH]ccc23)c1C(F)(F)F"
  Numeric result: 6150

----------
Experimental details: Single oral dose plasma PK in fasted dogs
Type: in vivo, dog
Assay setup: male, beagle, dog, plasma, po, 22.5 mg/kg, 3M, 22.5 mg/kg PO, PEG400/PVP VA 90:10 solution, Study 6

- Compound: "O=C(Nc1ccnc(C(F)(F)F)c1)c1cnn(-c2cccc3c(=O)[nH]ccc23)c1C(F)(F)F [Compound A]"
  Tmax: "1.25 h"

----------
Experimental details: 14-day oral toxicity study toxicokinetics in Sprague-Dawley rats
Assay type: in vivo
Assay setup: male, rat, plasma, 200 mg/kg/day, male, Day 13, 200 mg/kg/day, mean, read-out: AUC0-24 h

- Compound: "O=C(Nc1ccnc(C(F)(F)F)c1)c1cnn(-c2cccc3c(=O)[nH]ccc23)c1C(F)(F)F [Compound A]"
  Endpoint unit: "µg·h/mL"
  AUC(0-t): 803

----------
Experimental details: FIH study 67856633LYM1001 plasma pharmacokinetics
Type: in vivo, human
Assay setup: human, plasma, oral, 100 mg, Cycle 1 Day 1, 50 mg capsule, cohort 2 × 50 mg; mean; read-out: AUCτ

- Compound smiles: "O=C(Nc1ccnc(C(F)(F)F)c1)c1cnn(-c2cccc3c(=O)[nH]ccc23)c1C(F)(F)F"
  AUC: "51400 ng·h/mL"

----------
Experimental details: Single IV dose plasma PK
Type: in vivo, mouse
Assay setup: CD-1 and NSG (mouse); Sprague-Dawley (rat); beagle (dog), plasma; similar across all species (mouse, rat, monkey, dog), IV 1 mg/kg; read-out: apparent volume of distribution at steady state

- Compound smiles: "O=C(Nc1ccnc(C(F)(F)F)c1)c1cnn(-c2cccc3c(=O)[nH]ccc23)c1C(F)(F)F"
  Vd: "~1 L/kg"
